Target: Uncharacterized protein FLJ45252 (Homo sapiens, UniProt Q6ZSR9); also: in the data inactive means no Kd found up to 30 µM
Sequence (Q6ZSR9 whole entry): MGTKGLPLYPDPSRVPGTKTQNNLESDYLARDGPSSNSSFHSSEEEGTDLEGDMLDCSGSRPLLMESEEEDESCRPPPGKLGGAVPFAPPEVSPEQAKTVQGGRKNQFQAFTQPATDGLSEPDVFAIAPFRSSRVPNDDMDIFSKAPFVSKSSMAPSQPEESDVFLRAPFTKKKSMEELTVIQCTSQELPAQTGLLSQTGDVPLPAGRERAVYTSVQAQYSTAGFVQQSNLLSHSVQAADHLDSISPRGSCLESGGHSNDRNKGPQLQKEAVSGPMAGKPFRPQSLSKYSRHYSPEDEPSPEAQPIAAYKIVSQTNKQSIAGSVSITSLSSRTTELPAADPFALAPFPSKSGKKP
Conditions: read-out: Kd apparent; k-562, colo 205, sk-n-be(2) and mv-4-11
Calls of active or inactive are those of the source. Rule as the data show it: actives have a measured Kd and inactives only a lower limit.
Returns: one label drawn from Y (active), N (inactive)

MOLECULE	ASSAY_TARGET	LABEL_VALUE
CN1CCN(c2ccc3nc(-c4c(N)c5c(F)cccc5[nH]c4=O)[nH]c3c2)CC1	Uncharacterized protein FLJ45252 (Homo sapiens, UniProt Q6ZSR9)	Y
COC(=O)N[C@@H](C)CNc1nccc(-c2cn(C(C)C)nc2-c2cc(Cl)cc(NS(C)(=O)=O)c2F)n1	Uncharacterized protein FLJ45252 (Homo sapiens, UniProt Q6ZSR9)	N
CCCS(=O)(=O)Nc1ccc(F)c(C(=O)c2c[nH]c3ncc(-c4ccc(Cl)cc4)cc23)c1F	Uncharacterized protein FLJ45252 (Homo sapiens, UniProt Q6ZSR9)	N
Cc1ccc(-n2nc(C(C)(C)C)cc2NC(=O)NCc2cc(F)ccc2Oc2ccc3c(cnn3CCO)c2)cc1	Uncharacterized protein FLJ45252 (Homo sapiens, UniProt Q6ZSR9)	N
Cc1cc(-c2cc(O)ccc2Cl)cc2nnc(Nc3ccc(OCCN4CCCC4)cc3)nc12	Uncharacterized protein FLJ45252 (Homo sapiens, UniProt Q6ZSR9)	N

(Q) Returns: the outcome recorded for CN1N=C(N)c2cn([C@@H]3O[C@H](COP(=O)(O)O)[C@@H](O)[C@H]3O)c3ncnc1c23 [TRICIRIBINE PHOSPHATE] in this assay.
(A) N

(Q) Same again, this time with COc1cc(OC)c(/C=C/S(=O)(=O)Cc2ccc(OC)c(NCC(=O)O)c2)c(OC)c1
(A) N

(Q) Same again, this time with COc1cc2nccc(Oc3ccc(NC(=O)Nc4cc(C)on4)c(Cl)c3)c2cc1OC
(A) N

(Q) Same again, this time with Nc1nc(N)c2nc(-c3cccc(O)c3)c(-c3cccc(O)c3)nc2n1
(A) Y
